molecular target: human urokinase (Homo sapiens); assay: biochemical; conditions: Table 2; S-2444 substrate, pH 8.8, 37° C.; read-out: Urokinase S-2444 (I50)
pIC50: −log10 of the molar value. Counter-ions that a name gives are not always drawn.

>  <MOLECULE>
CC1CCC(NC(=O)C(Cc2ccc(OCc3cccc(Cl)c3)cc2)NC(=O)c2ccc(CN)cc2)CC1C (stereo not drawn)

>  <pIC50>
< 4.00

$$$$
>  <MOLECULE>
NCc1ccc(C(=O)NC(Cc2ccc(OCc3ccccc3)cc2)C(=O)NCc2ccc(F)cc2)cc1 (stereo not drawn)

>  <pIC50>
< 4.70

$$$$
>  <MOLECULE>
NC[C@H]1CC[C@H](C(=O)NC(Cc2ccc([N+](=O)[O-])cc2)C(=O)Nc2ccc(C(=O)c3ccccc3)cc2)CC1 (mixture of isomers) [Compound No. 31, hydrochloride]

>  <pIC50>
5.48

$$$$

====

IC50 reference
target: bovine thrombin (Bos taurus); experiment: Antithrombin activity: inhibition of fibrin formation from fibrinogen; assay type: biochemical
Where a name gives a salt, the structure may show the parent alone.

>  <COMPOUND>
N=C(N)c1ccc(NC(=O)[C@H](Cc2ccc(OCc3ccccc3)cc2)NC(=O)[C@H]2CC[C@H](CN)CC2)cc1

>  <IC50>
> 200 µM

$$$$
>  <COMPOUND>
CC(=O)c1ccc(NC(=O)[C@H](Cc2ccccc2)NC(=O)[C@H]2CC[C@H](CN)CC2)cc1

>  <IC50>
> 1000 µM

$$$$
>  <COMPOUND>
NCc1ccc(C(=O)N[C@@H](Cc2ccc(OCc3ccccc3)cc2)C(=O)N2CCN(C(=O)c3ccccc3)CC2)cc1

>  <IC50>
> 400 µM

$$$$
>  <COMPOUND>
NCc1ccc(C(=O)N[C@@H](Cc2ccc(OCc3ccccc3)cc2)C(=O)NC2CC3CCC2C3)cc1 (some centres unmarked)

>  <IC50>
> 100 µM

$$$$
>  <COMPOUND>
NC[C@H]1CC[C@H](C(=O)N[C@@H](Cc2ccc(OCc3ccccc3)cc2)C(=O)Nc2cccnc2)CC1 [Compound No. 16, dihydrochloride]

>  <IC50>
> 500 µM

$$$$
>  <COMPOUND>
CCOC(=O)c1cccc(NC(=O)[C@H](Cc2ccc(OCc3ccccc3)cc2)NC(=O)[C@H]2CC[C@H](CN)CC2)c1

>  <IC50>
> 100 µM

$$$$
>  <COMPOUND>
CC(=O)c1ccc(NC(=O)[C@H](Cc2ccc(OC(=O)OCc3ccccc3Br)cc2)NC(=O)[C@H]2CC[C@H](CN)CC2)cc1

>  <IC50>
> 50 µM

$$$$
>  <COMPOUND>
Cc1ccc(NC(=O)[C@H](Cc2ccc(OCc3ccccc3)cc2)NC(=O)c2ccc(CN)cc2)cc1C

>  <IC50>
> 50 µM

$$$$
>  <COMPOUND>
NC[C@H]1CC[C@H](C(=O)N[C@@H](Cc2ccc(OCc3ccccc3)cc2)C(=O)Nc2cccc([N+](=O)[O-])c2)CC1

>  <IC50>
> 100 µM

$$$$
>  <COMPOUND>
NCc1ccc(C(=O)N[C@@H](Cc2ccccc2)C(=O)Nc2cccc(C(F)(F)F)c2)cc1

>  <IC50>
> 500 µM

$$$$
>  <COMPOUND>
NC[C@H]1CC[C@H](C(=O)N[C@@H](Cc2ccc(OCc3ccc(Cl)c(Cl)c3)cc2)C(=O)Nc2ccncc2)CC1

>  <IC50>
> 50 µM

$$$$
>  <COMPOUND>
CC1CCC(NC(=O)C(Cc2ccc(Oc3ccc([N+](=O)[O-])cc3)cc2)NC(=O)c2ccc(CN)cc2)CC1C (centres unmarked)

>  <IC50>
> 40 µM

$$$$
>  <COMPOUND>
CC1CCC(NC(=O)[C@H](Cc2ccc(OCc3ccccc3)cc2)NC(=O)c2ccc(CN)cc2)CC1C (some centres unmarked) [Compound No. 80, hydrochloride]

>  <IC50>
> 50 µM

$$$$
>  <COMPOUND>
NCc1ccc(C(=O)N[C@@H](Cc2ccc(OCc3ccccc3)cc2)C(=O)NCCc2ccccc2)cc1

>  <IC50>
> 50 µM

$$$$

====

Molecular target: UniProt P00735
Test: Antithrombin activity: inhibition of S-2238 decomposition
Assay type: biochemical
Method: (ii) Determination of inhibition activity for S-2238 decomposition An inhibitor sample is dissolved in a 0.05M Tris-hydrochloric acid buffer solution (pH=8.3) to make a total volume of 400 μl. […] Then, 50 μl of a 0.2 unit/ml bovine thrombin solution is added thereto and the absorbance, at 405 nm, of the p-nitroaniline formed per minute is determined at a temperature of 37° C. by using the so-called initial velocity method. […]

>  <COMPOUND>
NC[C@H]1CC[C@H](C(=O)N[C@@H](Cc2ccc(OCc3ccccc3)cc2)C(=O)NC2CC3CCC2C3)CC1 (stereo partly drawn)

>  <STUDY_TARGET>
UniProt P00735

>  <IC50>
> 400 µM

$$$$
>  <COMPOUND>
NCc1ccc(C(=O)N[C@@H](Cc2ccc(OCc3ccccc3)cc2)C(=O)NCCc2ccccc2)cc1

>  <STUDY_TARGET>
UniProt P00735

>  <IC50>
> 50 µM

$$$$
>  <COMPOUND>
NC[C@H]1CC[C@H](C(=O)N[C@@H](Cc2ccc(OCc3ccccc3)cc2)C(=O)N2CCC(C(=O)c3ccccc3)CC2)CC1

>  <STUDY_TARGET>
UniProt P00735

>  <IC50>
> 200 µM

$$$$
>  <COMPOUND>
COc1ccc(NC(=O)[C@H](Cc2ccc(OCc3ccccc3)cc2)NC(=O)c2ccc(CN)cc2)cn1

>  <STUDY_TARGET>
UniProt P00735

>  <IC50>
> 200 µM

$$$$
>  <COMPOUND>
CC(=O)c1ccc(NC(=O)[C@H](Cc2ccc(OCc3cccc(Cl)c3)cc2)NC(=O)[C@H]2CC[C@H](CN)CC2)cc1

>  <STUDY_TARGET>
UniProt P00735

>  <IC50>
> 100 µM

$$$$
>  <COMPOUND>
NC[C@H]1CC[C@H](C(=O)N[C@@H](Cc2ccc(OCc3ccccc3)cc2)C(=O)Nc2cccc(Cl)c2)CC1

>  <STUDY_TARGET>
UniProt P00735

>  <IC50>
> 125 µM

$$$$

====

biological target: bovine thrombin (Bos taurus, UniProt P00735); test: Antithrombin activity: inhibition of S-2238 decomposition; type: biochemical; details: Table 2; S-2238 substrate, pH 8.3, 37° C.; read-out: Thrombin S-2238 (I50)
pIC50: −log10 of the molar value. Where a name gives a salt, the structure may show the parent alone.

>  <MOLECULE>
CC1CCC(NC(=O)C(Cc2ccc(OCc3cccc(Cl)c3)cc2)NC(=O)C2CCC(CN)CC2)CC1C (stereo not shown) [compound 102]

>  <pIC50>
< 3.40

$$$$
>  <MOLECULE>
CCOC(=O)C1CCCC(NC(=O)[C@H](Cc2ccc(OCc3cccc(Cl)c3)cc2)NC(=O)c2ccc(CN)cc2)C1 (stereo partly shown) [compound 72]

>  <pIC50>
< 4.30

$$$$
>  <MOLECULE>
NC[C@H]1CC[C@H](C(=O)N[C@@H](Cc2ccc(OCc3cccc(Cl)c3)cc2)C(=O)Nc2ccnc(Cl)c2)CC1 [compound 128]

>  <pIC50>
< 3.00

$$$$
>  <MOLECULE>
CC(=O)c1ccc(NC(=O)[C@H](Cc2ccc(OCc3cccc(F)c3)cc2)NC(=O)[C@H]2CC[C@H](CN)CC2)cc1 [compound 56]

>  <pIC50>
3.30

$$$$
>  <MOLECULE>
CC(=O)c1ccc(NC(=O)[C@H](Cc2ccc(OCc3cccc(C#N)c3)cc2)NC(=O)[C@H]2CC[C@H](CN)CC2)cc1 [Compound No. 122, hydrochloride]

>  <pIC50>
< 3.70

$$$$
>  <MOLECULE>
NCC1CCC(C(=O)NC(Cc2ccc(OCc3cccc(Cl)c3)cc2)C(=O)Nc2cccc(S(N)(=O)=O)c2)CC1 (stereo not shown) [compound 93]

>  <pIC50>
< 3.70

$$$$
>  <MOLECULE>
NCc1ccc(C(=O)N[C@@H](Cc2ccc(OCc3ccccc3)cc2)C(=O)NC2CC3CCC2C3)cc1 (stereo partly shown) [compound 62]

>  <pIC50>
< 3.70

$$$$

====

molecular target: UniProt P00747; test: Antiplasmin activity: inhibition of fibrin decomposition; format: biochemical; conditions: Table 2; concentration at which fibrin dissolution time is extended twice, pH 7.4, 37° C.; read-out: Plasmin Fibrin (I50)
Sequence (P00747 581-810 limits assumed): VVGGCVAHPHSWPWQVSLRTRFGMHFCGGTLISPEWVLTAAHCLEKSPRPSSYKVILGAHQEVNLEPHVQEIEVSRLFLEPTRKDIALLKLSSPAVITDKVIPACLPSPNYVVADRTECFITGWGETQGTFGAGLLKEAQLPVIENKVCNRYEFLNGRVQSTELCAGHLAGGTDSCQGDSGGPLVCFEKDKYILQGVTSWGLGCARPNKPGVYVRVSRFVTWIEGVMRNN
Sequence (P00747 97-580 partner limits assumed): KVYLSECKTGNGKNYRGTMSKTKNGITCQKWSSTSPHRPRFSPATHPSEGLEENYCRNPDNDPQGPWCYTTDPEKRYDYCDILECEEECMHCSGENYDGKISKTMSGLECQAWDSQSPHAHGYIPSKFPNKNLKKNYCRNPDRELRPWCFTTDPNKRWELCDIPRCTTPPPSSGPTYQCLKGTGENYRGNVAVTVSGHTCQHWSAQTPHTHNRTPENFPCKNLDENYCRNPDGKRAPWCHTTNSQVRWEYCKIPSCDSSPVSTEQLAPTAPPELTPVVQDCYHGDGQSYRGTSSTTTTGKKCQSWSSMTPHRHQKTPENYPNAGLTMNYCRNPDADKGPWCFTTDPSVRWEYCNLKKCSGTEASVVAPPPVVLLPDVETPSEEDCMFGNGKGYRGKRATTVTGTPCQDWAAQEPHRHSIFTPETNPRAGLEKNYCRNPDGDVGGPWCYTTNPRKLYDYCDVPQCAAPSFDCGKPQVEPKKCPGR
Where a name gives a salt, the structure may show the parent alone.
The threshold is 500 nM. Values of IC50 beneath it are tagged Fulfilled; values meeting or exceeding it are tagged Not fulfilled.

>  <COMPOUND>
NCc1ccc(C(=O)N[C@@H](Cc2ccc(OCc3ccccc3)cc2)C(=O)NC2CCCCC2)cc1 [Compound No. 114, hydrochloride]

>  <STUDY_TARGET>
UniProt P00747

>  <ASSIGNED_CATEGORY>
Not fulfilled

$$$$
>  <COMPOUND>
CCOC(=O)C1CCCC(NC(=O)[C@H](Cc2ccc(OCc3cccc(Cl)c3)cc2)NC(=O)c2ccc(CN)cc2)C1 (stereo partly shown)

>  <STUDY_TARGET>
UniProt P00747

>  <ASSIGNED_CATEGORY>
Not fulfilled

$$$$
>  <COMPOUND>
CC(=O)c1ccc(NC(=O)[C@H](Cc2ccc(OCc3ccncc3)cc2)NC(=O)[C@H]2CC[C@H](CN)CC2)cc1

>  <STUDY_TARGET>
UniProt P00747

>  <ASSIGNED_CATEGORY>
Not fulfilled

$$$$
>  <COMPOUND>
CC(=O)c1ccc(NC(=O)[C@H](Cc2ccc(OCc3ccc(Cl)cc3)cc2)NC(=O)[C@H]2CC[C@H](CN)CC2)cc1

>  <STUDY_TARGET>
UniProt P00747

>  <ASSIGNED_CATEGORY>
Fulfilled

$$$$
>  <COMPOUND>
NCc1ccc(C(=O)N[C@@H](Cc2ccc(OCc3ccccc3)cc2)C(=O)NC2CCC(O)CC2)cc1 (stereo partly shown)

>  <STUDY_TARGET>
UniProt P00747

>  <ASSIGNED_CATEGORY>
Not fulfilled

$$$$
>  <COMPOUND>
CC(=O)c1ccc(NC(=O)[C@H](Cc2ccc(OCc3ccccc3)cc2)NC(=O)[C@H]2CC[C@H](CN)CC2)cc1

>  <STUDY_TARGET>
UniProt P00747

>  <ASSIGNED_CATEGORY>
Fulfilled

$$$$
